Data provenance: PubChem BioAssay AID1159580

Entries annotated with measured normalized growth
# method.description: chemical genetic growth profiling, strain panel (AID 1159580);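 further: tested at 20 µM; growth read once vehicle control cultures reached saturation at 30 °C; 1 = growth at the plate median or of vehicle wells; lower values mean less growth of the strain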
# details: S. cerevisiae deletion strains, growth OD, locus YLR262C, strain YPT6 (second series), active compounds read low
About 2,000 (36%) of roughly 5,500 compounds were called active. Inconclusive results (about 18%) are left out. The list shows a part of the results.
outcome.measure: normalized growth

>>> reading("Cc1c(C(N)=O)cc([N+](=O)[O-])cc1[N+](=O)[O-]")
1.02
>>> reading("CC1(C)C(O)CC(=O)C2(C)C1CC(O)C1(C)C2CCC2(C)C(c3ccoc3)OC(=O)C3OC321 (stereo not drawn)")
0.998
>>> reading("Nc1ccc(S(=O)(=O)Nc2ncccn2)cc1")
0.981
>>> reading("CC(C)(C)NCC(O)COc1cccc2c1C[C@H](O)[C@H](O)C2 (stereo partly drawn)")
1.01
>>> reading("COP(N)(=O)SC (stereo not drawn)")
1.01
>>> reading("Oc1ccc([C@H]2Oc3cc(O)cc(O)c3C[C@H]2O)cc1")
1
>>> reading("NC(=O)c1ccc([N+](=O)[O-])cc1Cl")
0.991
>>> reading("COc1nc(NC(C)C)nc(NC(C)C)n1")
1.02

----------
# method.description: chemical genetic growth profiling, strain panel (AID 1159580);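 further: tested at 20 µM; growth read once vehicle control cultures reached saturation at 30 °C; 1 = growth at the plate median or of vehicle wells; lower values mean less growth of the strain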
# details: S. cerevisiae deletion strains, growth OD, locus YNR049C, strain mso1, active compounds read low
Among all 5,500 compounds or so, about 2,000 (36%) were called active. Another 18% or so got no clear call; they are omitted. This is one part of the list.
outcome.measure: normalized growth

>>> reading("C/C=C/CC(C)C(O)C1C(=O)NC(CC)C(=O)N(C)CC(=O)N(C)C(CC(C)C)C(=O)NC(C(C)C)C(=O)N(C)C(CC(C)C)C(=O)NC(C)C(=O)NC(C)C(=O)N(C)C(CC(C)C)C(=O)N(C)C(CC(C)C)C(=O)N(C)C(C(C)C)C(=O)N1C (stereo unspecified)")
1.02
>>> reading("CC[C@@]1(O)C(=O)OCc2c1cc1n(c2=O)Cc2cc3cc(O)ccc3nc2-1")
1
>>> reading("O=C(O)C1=CC(=C(c2ccc(O)c(C(=O)O)c2)c2ccc(O)c(C(=O)O)c2)C=CC1=O")
0.992
>>> reading("COC(=O)C(N)CS (stereo unspecified)")
0.986
>>> reading("NCC(O)CC(=O)O (stereo unspecified)")
0.983
>>> reading("Cc1ccc(-c2nc3ccc(C)cn3c2CC(=O)N(C)C)cc1")
0.986

----------
# method.description: chemical genetic growth profiling, strain panel (AID 1159580);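 further: tested at 20 µM; growth read once vehicle control cultures reached saturation at 30 °C; 1 = growth at the plate median or of vehicle wells; lower values mean less growth of the strain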
# details: S. cerevisiae deletion strains, growth OD, locus YOR119C, strain RIO1, active compounds read low
Hit rate of the full screen: of about 5,500 compounds, about 2,000 (36%) were called active. Not shown: some 18% with an inconclusive outcome. The list shows a part of the results.
Entries annotated with measured normalized growth
outcome.measure: normalized growth

>>> reading("N/C(=N/OC(=O)c1cnn(-c2ccc([N+](=O)[O-])cc2)c1C(F)(F)F)c1ccc(Cl)cc1")
1.06
>>> reading("COc1ccccc1N1CCN(C(=O)C(C)c2ccc(CC(C)C)cc2)CC1 (stereo not given)")
0.951
>>> reading("N#Cc1nccnc1N1CCN(C(=O)Nc2cc(Cl)cc(Cl)c2)CC1")
1.02
>>> reading("Cc1cc(Br)c(O)c(/C=N\\NC(=S)NC(C)(C)C)c1")
0.967
>>> reading("O=C(NC(=S)NNc1ncc(C(F)(F)F)cc1Cl)c1cccs1")
0.237
>>> reading("O=C(Nc1ccccc1C(=O)O)OCC1c2ccccc2-c2ccccc21")
0.927
>>> reading("COc1ccc(Br)c(C(=O)/C(C#N)=C/c2cccs2)c1")
0.249
>>> reading("CC1(C)C=Cc2cc(/C(N)=N\\OC(=O)Nc3cccc(C(F)(F)F)c3)ccc2O1")
1.04
>>> reading("O=C(Nc1cc2ccccc2s1)N1CCN(Cc2c(F)cccc2Cl)CC1")
0.993
>>> reading("FC(F)(F)Sc1ccc(OCc2n[nH]c(=S)n2-c2ccccc2)cc1")
1
>>> reading("COc1ccc(N=C2SCC(c3ccc(C)cc3)=NN2CCO)cc1")
0.999
>>> reading("Cc1ccc(OS(=O)(=O)c2c(Cl)sc(Cl)c2Br)c([N+](=O)[O-])n1")
1.04
>>> reading("Cc1cc(-c2onc(C)c2C(=O)Sc2ccccc2)no1")
0.836
>>> reading("COC(=O)/C=C1/OC(c2ccc(OC)cc2)=CC1=O")
0.108
>>> reading("Cc1ccc(Sc2ncccc2NS(=O)(=O)c2ccc(Cl)cc2)cc1")
0.912
>>> reading("N/C(=N/OC(=O)c1ccc([N+](=O)[O-])cc1)c1c(Cl)cccc1Cl")
0.746
>>> reading("ONC(=Nc1ccccc1Cl)c1ccccc1Cl")
0.886
>>> reading("O=S(=O)(Nc1ccccc1Sc1c(Cl)cncc1Cl)c1ccc(Cl)cc1")
1.01
>>> reading("OC(COCc1ccccc1)Cn1c2ccccc2c2ccccc21 (stereo not given)")
0.933
>>> reading("O=C(O/N=C1/CCCc2[nH]c3ccccc3c21)C1CCCCC1")
0.948
